Test system: Alternaria alternata
assay-remarks: Antimicrobial activity against Alternaria alternata DMS2006 by serial dilution technique
Format: functional
readout-label: MIC (µM)

A selection of reference data follows.
# compound, MIC (µM)
measured = [
    ("C[C@@H]1C(=O)O[C@H]2[C@H]1[C@@H](O)C[C@]1(C)[C@@H]2[C@@H](C=O)CC[C@H]1O", 0.3),
    ("C/C1=C\\CC/C(CO)=C/[C@H]2OC(=O)[C@@H](C)[C@@H]2[C@@H](O)C1", 0.7),
]

1: C=C[C@]1(C)C[C@H](OC(=O)C(=C)CCO)[C@@H]2[C@H](OC(=O)[C@H]2C)[C@H]1C(=C)CO
2: Clc1ccc(COC(Cn2ccnc2)c2ccc(Cl)cc2Cl)c(Cl)c1 (stereo unspecified)
3: C=C[C@]1(C)C[C@H](O)[C@@H]2[C@H](OC(=O)[C@H]2C)[C@H]1C(=C)CO
4: C[C@@H]1C(=O)O[C@@H]2C3[C@H](C=O)CCC[C@]3(C)C[C@H](O)[C@@H]12 (stereo partly specified)
Ask: Arrange items by their MIC values in increasing order. Form field (ranking): labels in requested order.
Reply: 1, 4, 2, 3

====

Tested on: Staphylococcus epidermidis
assay-remarks: Antimicrobial activity against Staphylococcus epidermidis ATCC 12228 by serial dilution technique
Assay type: functional
readout-label: MBC (µM)
Lab book: enter the figure in µM, no units written.

A selection of reference data follows.
# compound, study-system, readout-label, u, quantitative-readout
measured = [
    ("C[C@@H]1C(=O)O[C@H]2[C@H]1[C@@H](O)C[C@]1(C)[C@@H]2[C@@H](C=O)CC[C@H]1O", "Staphylococcus epidermidis", "MBC", "µM", 1.4),
    ("C/C1=C\\CC/C(CO)=C/[C@H]2OC(=O)[C@@H](C)[C@@H]2[C@@H](O)C1", "Staphylococcus epidermidis", "MBC", "µM", 1.9),
    ("C=C[C@]1(C)C[C@H](O)[C@@H]2[C@H](OC(=O)[C@H]2C)[C@H]1C(=C)CO", "Staphylococcus epidermidis", "MBC", "µM", 2.3),
    ("CN[C@@H]1[C@H](O[C@H]2[C@H](O[C@H]3[C@H](O)[C@@H](O)[C@H](N=C(N)N)[C@@H](O)[C@@H]3N=C(N)N)O[C@@H](C)[C@]2(O)C=O)O[C@@H](CO)[C@H](O)[C@H]1O", "Staphylococcus epidermidis", "MBC", "µM", 1.6),
    ("C[C@@H]1C(=O)O[C@@H]2C3[C@H](C=O)CCC[C@]3(C)C[C@H](O)[C@@H]12 (stereo partly specified)", "Staphylococcus epidermidis", "MBC", "µM", 1.1),
]

# input for lookup
Ask: Need MBC of "C=C[C@]1(C)C[C@H](OC(=O)C(=C)CCO)[C@@H]2[C@H](OC(=O)[C@H]2C)[C@H]1C(=C)CO" , thanks.
Reply: 0.8

====

System: Aspergillus niger
assay-remarks: Antimicrobial activity against Aspergillus niger ATCC 6275 by serial dilution technique
Format: functional
readout-label: MIC (µM)

A selection of reference data follows.
# compound, MIC, µM
measured = [
    ("C/C1=C\\CC/C(CO)=C/[C@H]2OC(=O)[C@@H](C)[C@@H]2[C@@H](O)C1", 0.7),
    ("C[C@@H]1C(=O)O[C@H]2[C@H]1[C@@H](O)C[C@]1(C)[C@@H]2[C@@H](C=O)CC[C@H]1O", 0.3),
]

P: C=C[C@]1(C)C[C@H](O)[C@@H]2[C@H](OC(=O)[C@H]2C)[C@H]1C(=C)CO
Q: C=C[C@]1(C)C[C@H](OC(=O)C(=C)CCO)[C@@H]2[C@H](OC(=O)[C@H]2C)[C@H]1C(=C)CO
R: Clc1ccc(COC(Cn2ccnc2)c2ccc(Cl)cc2Cl)c(Cl)c1 (stereo unspecified)
Ask: Order the items by recorded MIC; the first position goes to the largest value. Form field (ranking): labels in requested order.
Reply: R, P, Q
(R: 3 µM, P: 0.7 µM, Q: 0.3 µM)
